test: Clinical pharmacokinetics of verapamil and norverapamil alone or with carmegliptin; details: male, human, plasma, oral, 80 mg

COMPOUND | Tmax
COc1ccc(CCNCCCC(C#N)(c2ccc(OC)c(OC)c2)C(C)C)cc1OC (stereo not shown) [Norverapamil] | 1 h

====

experiment: Clinical pharmacokinetics of carmegliptin (plasma and urine) alone or with verapamil; assay type: in vivo, human; conditions: male, human, plasma, oral, 150 mg, carmegliptin 150 mg single dose alone, day 1; geometric mean (CV%)

COMPOUND | Cmax [ng/mL]
COc1cc2c(cc1OC)[C@@H]1C[C@H](N)[C@@H](N3C[C@@H](CF)CC3=O)CN1CC2 | 342

====

test: Clinical pharmacokinetics of carmegliptin (plasma and urine) alone or with verapamil; type: in vivo, human; conditions: male, human, plasma, oral, 150 mg, carmegliptin 150 mg single dose alone, day 1; geometric mean (CV%)

COMPOUND | half-life / h
COc1cc2c(cc1OC)[C@@H]1C[C@H](N)[C@@H](N3C[C@@H](CF)CC3=O)CN1CC2 | 22.4

====

assay: Clinical pharmacokinetics of carmegliptin (plasma and urine) alone or with verapamil; assay type: in vivo, human; details: male, human, plasma, oral, carmegliptin 150 mg + acute verapamil 80 mg t.i.d., day 10; median (range)

COMPOUND | Tmax [min]
COc1cc2c(cc1OC)[C@@H]1C[C@H](N)[C@@H](N3C[C@@H](CF)CC3=O)CN1CC2 | 45

====

Assay: Clinical pharmacokinetics of carmegliptin (plasma and urine) alone or with verapamil
Type: in vivo, human
Conditions: male, human, plasma, oral, 150 mg, carmegliptin 150 mg single dose alone, day 1; geometric mean (CV%)
Protocol: All urine produced by subjects during each sampling interval was collected in pre-weighed polyethylene containers. […] Plasma and urine samples were analyzed for carmegliptin by high-performance liquid chromatography combined with tandem mass spectrometric detection at F. Hoffmann-La Roche Ltd, Basel, Switzerland. The lower limit of quantification was 1 ng/mL for plasma and 20 ng/mL for urine.

COMPOUND | AUC(0-inf)
COc1cc2c(cc1OC)[C@@H]1C[C@H](N)[C@@H](N3C[C@@H](CF)CC3=O)CN1CC2 | 3570 ng·h/mL

====

assay: Clinical pharmacokinetics of carmegliptin (plasma and urine) alone or with verapamil; assay type: in vivo, human; conditions: male, human, plasma, oral, carmegliptin 150 mg + acute verapamil 80 mg t.i.d., day 10; geometric mean (CV%)

COMPOUND | AUC(0-inf)
COc1cc2c(cc1OC)[C@@H]1C[C@H](N)[C@@H](N3C[C@@H](CF)CC3=O)CN1CC2 [Carmegliptin] | 4250 ng·h/mL

====

test: Clinical pharmacokinetics of carmegliptin (plasma and urine) alone or with verapamil; format: in vivo, human; conditions: male, human, plasma, oral, carmegliptin 150 mg + acute verapamil 80 mg t.i.d., day 10; geometric mean (CV%)

COMPOUND | UNIT ABBREVIATION | half-life
COc1cc2c(cc1OC)[C@@H]1C[C@H](N)[C@@H](N3C[C@@H](CF)CC3=O)CN1CC2 [Carmegliptin] | h | 21.8

====

Experiment: Clinical pharmacokinetics of carmegliptin (plasma and urine) alone or with verapamil
Assay type: in vivo, human
Conditions: male, human, plasma, oral, 150 mg, carmegliptin 150 mg single dose alone, day 1; median (range)
Description: All urine produced by subjects during each sampling interval was collected in pre-weighed polyethylene containers. […] Plasma and urine samples were analyzed for carmegliptin by high-performance liquid chromatography combined with tandem mass spectrometric detection at F. Hoffmann-La Roche Ltd, Basel, Switzerland. The lower limit of quantification was 1 ng/mL for plasma and 20 ng/mL for urine.
PROPERTY NAME: Tmax (h)

MOLECULE | PROPERTY NAME | UNIT ABBREVIATION | REPORTED RESULT
COc1cc2c(cc1OC)[C@@H]1C[C@H](N)[C@@H](N3C[C@@H](CF)CC3=O)CN1CC2 [Carmegliptin] | Tmax | h | 3
